Each recorded value in this set is attributed to ChEMBL document CHEMBL4354818.

Target protein (sequence): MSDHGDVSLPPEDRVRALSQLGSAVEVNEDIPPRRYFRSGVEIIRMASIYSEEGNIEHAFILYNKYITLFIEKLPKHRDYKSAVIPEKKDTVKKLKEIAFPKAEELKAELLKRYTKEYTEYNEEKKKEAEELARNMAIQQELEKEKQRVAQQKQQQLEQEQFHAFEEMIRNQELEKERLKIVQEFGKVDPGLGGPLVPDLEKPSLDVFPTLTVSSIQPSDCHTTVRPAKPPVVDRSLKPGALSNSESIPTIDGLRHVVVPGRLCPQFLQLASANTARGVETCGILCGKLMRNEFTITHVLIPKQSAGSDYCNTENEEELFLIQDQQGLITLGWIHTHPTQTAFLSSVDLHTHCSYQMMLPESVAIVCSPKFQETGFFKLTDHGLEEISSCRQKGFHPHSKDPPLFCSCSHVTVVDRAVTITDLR
reported endpoint: IC50 (nM)
Numeric only. Scale: nM

Provide IC50 value for the following molecule: `O=C(CSc1nc2ccc(N3CCOCC3)cc2c(=O)n1CCc1ccccc1)NCc1ccco1`
330
